Test protocol: Cmax in Sprague-Dawley brain rat at 10 mg/kg, po
Assay type: ADME, organism-based
Set-up: dose 10 mg/kg, route oral
Measure name: Cmax
# include the unit after the value

Query: // lookup Cmax for `COc1ccc(C(=O)N2CCN(c3ccccn3)CC2)cc1C#Cc1ccccn1`
Reply: 1790 nM

---

Test protocol: Ratio of drug level in brain to plasma in Swiss Webster mouse at 10 mg/kg, po
Assay type: ADME, organism-based
Design: dose 10 mg/kg, route oral
Measure name: Kp
// print number alone

Query: // lookup Kp for `COc1ccc(C(=O)N2CCN(c3ccccn3)CC2)cc1C#Cc1ccccn1`
Reply: 0.31

---

Test protocol: AUClast in Sprague-Dawley rat at 10 mg/kg, po
Format: ADME, organism-based
Design: time 0 - last, dose 10 mg/kg, route oral
Assay context: plasma
Measure name: AUC(0-t) (ng·h/mL)
Give just the numeric value; ng·h/mL need not be written.

Query: // lookup AUC(0-t) for `COc1ccc(C(=O)N2CCN(c3ccccn3)CC2)cc1C#Cc1ccccn1`
Reply: 13400
